target_system: aldose reductase of rabbit lens (Oryctolagus cuniculus, UniProt P15122)
Construct: to obtain electrophoretically homogeneous aldose reductase; from tissue; host or cells: rabbit lens
run_description: Inhibitory effect on aldose reductase of lens
Assay type: biochemical
test_settings: concentration 5x10^-7 M; read-out: Degree of inhibition for aldose reductase (%)
measurement_name: inhibition at 0.5 µM

INSERT INTO assay_data (compound, result) VALUES
  ('CC(C)Cc1nc2c3nc(C(=O)O)cc(C(=O)O)c3c3[nH]c(C(=O)O)cc3c2o1', '57.2%'),
  ('O=C(O)c1cc(C(=O)O)c2c(n1)c1ncoc1c1cc(C(=O)O)[nH]c12', '63.1%'),
  ('O=C(O)c1cc(C(=O)O)c2c(n1)c1nc(CO)oc1c1cc(C(=O)O)[nH]c12 [Hydroxymethyl OPQ]', '31.9%'),
  ('CCC(C)c1nc2c3nc(C(=O)O)cc(C(=O)O)c3c3[nH]c(C(=O)O)cc3c2o1 (centres unmarked)', '50.8%'),
  ('CC(C)c1nc2c3nc(C(=O)O)cc(C(=O)O)c3c3[nH]c(C(=O)O)cc3c2o1', '33%');
